Each recorded value in this set is attributed to patent US11535615B2.

The reader will find reported IC50 values listed item by item below.
Molecular target: PD-1/PD-L1 protein/protein interaction (Homo sapiens (Human))
Sequence (Q9NZQ7 19-238): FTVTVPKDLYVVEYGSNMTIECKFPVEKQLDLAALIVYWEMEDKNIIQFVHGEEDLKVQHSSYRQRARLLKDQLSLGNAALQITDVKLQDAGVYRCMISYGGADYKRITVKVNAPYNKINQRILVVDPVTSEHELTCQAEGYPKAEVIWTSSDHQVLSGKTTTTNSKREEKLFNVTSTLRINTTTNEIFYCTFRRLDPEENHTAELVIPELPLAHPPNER
Test: PD-1/PD-L1 Homogeneous Time-Resolved Fluorescence (HTRF) Binding Assay
Details: recombinant human PD-L1 (19-238) His-tag and human PD-1 (25-167) Fc tag; PBS pH 7.4

INSERT INTO assay_data (compound, measurement_type, observed_value) VALUES
  ('N#Cc1c(Nc2nccc3cc(CNCCO)cnc23)cccc1-c1ccccc1 [Example 19]', 'IC50', '≤ 10 nM');

Give me measured IC50, please, for this compound: Cc1c(Nc2nccc3c(CN4CCCCC4C(=O)O)ccnc23)cccc1-c1ccccc1 (stereo not shown) [Example 5]
≤ 10 nM

Give me measured IC50, please, for this compound: Cc1c(Nc2nccc3c(CNCCO)ccnc23)cccc1-c1ccccc1 [Example 6]
10 to 100 nM

Give me measured IC50, please, for this compound: Cc1c(Nc2nccc3c(Cl)c(CNCCO)cnc23)cccc1-c1ccccc1 [Example 9]
10 to 100 nM

Give me measured IC50, please, for this compound: Cc1c(Nc2nccc3nc(CNCCO)cnc23)cccc1-c1ccccc1 [Example 14]
≤ 10 nM

Give me measured IC50, please, for this compound: Cc1c(Nc2nccc3c(CN4CCCCC4C(=O)O)ccnc23)cccc1-c1ccc2c(c1)OCCO2 (stereo not shown) [Example 13]
10 to 100 nM

Give me measured IC50, please, for this compound: Cc1c(Nc2nccc3cc(CNCCO)cnc23)cccc1C1=CCCCC1 [Example 18]
≤ 10 nM

Give me measured IC50, please, for this compound: Cc1c(Nc2cccc3c(CN4CCCCC4C(=O)O)ccnc23)cccc1-c1ccccc1 (stereo not shown) [Example 8]
10 to 100 nM

Give me measured IC50, please, for this compound: Cc1c(Nc2nccc3cc(CNCCO)cnc23)cccc1-c1ccc2c(c1)OCCO2 [Example 17]
≤ 10 nM

Give me measured IC50, please, for this compound: Cc1c(Nc2cccc3cc(CNCCO)cnc23)cccc1-c1ccccc1 [Example 1]
10 to 100 nM

Give me measured IC50, please, for this compound: Cc1c(Nc2nccc3cc(CN4CCCCC4C(=O)O)cnc23)cccc1-c1ccccc1 (stereo not shown) [Example 3]
10 to 100 nM

Give me measured IC50, please, for this compound: Cc1c(Nc2nccc3cc(CNCCO)cnc23)cccc1-c1ccccc1 [Example 2]
≤ 10 nM

Give me measured IC50, please, for this compound: N#Cc1c(Nc2nccc3cc(CNCCO)cnc23)cccc1C1CCCCC1 [Example 21]
10 to 100 nM
